These measurements were taken from the DeepSol protein solubility set.

assay: soluble on expression in E. coli; label from the status in PepcDB or PDB records
testReadout: soluble on expression in E. coli

Consider the worked cases shown below.
sequenceText: SNAMNNTQKKLKVLFIGESWHIHMIHSKGYDSFTSSKYEEGATWLLECLRKGGVDIDYMPAHTVQIAFPESIDELNRYDVIVISDIGSNTFLLQNETFYQLKIKPNALESIKEYVKNGGGLLMIGGYLSFMGIEAKANYKNTVLAEVLPVIMLDGDDRVEKPEGICAEAVSPEHPVVNGFSDYPVFLGYNQAVARDDADVVLTINNDPLLVFGEYQQGKTACFMSDCSPHWGTQQFMSWPFYTDLWVNTLQFIARK
soluble on expression in E. coli: soluble
//
sequenceText: AIAETEIHVPVGSPTIRKFQIFVDEHNVTEGAMKLIKELRPGWDPNLIRTKLFTDGTTNKLVGCYVEDCVEDVVLVRVYGNKTELIVDRDNELKSFQVLHANGCAPRLYCTFQNGICYEFMQGRALDTQDVRDPVLLRLIAREMARIHAIHAHNGCIPKPNLWIKMRKYFSLVATEFTEQASNIRIQQEVPSQEVLEQEMMWMKEHLSQLGSPVVLCHNDLLCKNIIHNAKEGHVRFIDYEYSSYNYQAFDIGNHFNEFAGMSEPDYNLYPSREMQLDWLQTYLQAYKLFTKKGEDVSERELETLYVQVNKFALASHFFWGFWALIQAKYSTIEFDFLGYAVLRFNQYFKTKPAVMALEIPK
soluble on expression in E. coli: soluble
//
sequenceText: MDRENILKAVKEARSLAKPRNFTQSLDLIINLKELDLSRPENRLKEQVVLPNGRGKEPKIAVIAKGDLAAQAEEMGLTVIRQDELEELGKNKKMAKKIANEHDFFIAQADMMPLVGKTLGPVLGPRGKMPQPVPANANLTPLVERLKKTVLINTRDKPLFHVLVGNEKMSDEELAENIEAILNTVSRKYEKGLYHVKSAYTKLTMGPPAQIEK
soluble on expression in E. coli: soluble
//
sequenceText: MLMVVPLSEMGPGDKGIVVNILGGHNARQKLVSMGLTPGATIQVLESHPMGPIIISVGGVRFAIGKGLAGRVMVRKL
soluble on expression in E. coli: soluble
//
sequenceText: MDTPPTVFSIIIPVYNRPDEVRELLESLLIQTNSDFEVIIVEDGSSVCCDKEVDRVRELLRIQYVRVPNGGPAAARNIGARMAVGEYLLILDSDVVLPSGYIAAVKKRIEQMQADAFGGPDAAAEGFSPIQKAINYAMTSFFTTGGIRGGRRVRLDKFYPRSFNFGCKLSVYRQLGGFSEEMRFGEDIDFSLRLFKAGYNVCLFPEAFVFHKRRIDFKKFFRQVYNSGIARIHLQRRHPGSMKP
soluble on expression in E. coli: not soluble
//
sequenceText: MKMKYEWRKQEKTTYATKKQPQLLTIPAQTFMSIHGTGNPNGPEFQTHLQTLYPAAYGLKHAYKQYAQTQACEFDDYVVFPLEGVWSLTIKGQQLDHLDKDEFSYDIMIRVPDFVPNELIAPALAAVKAKKQLPTEQINVQQFDAMQVAQILHLGAYDDEPASFAKIDELVANQGMHRTSKIHREIYLSDARRVAPDKLKTILRYRVASN
soluble on expression in E. coli: not soluble

Sample MGSDKIHHHHHHMTFMPEKRNADLLFRGFSKTRLMVITLIAVNGPMTVTQLSKVIKTTRSNLYQAIKEMVSDGILVQTRTVSEKNYVEKFYDINTDLFDAIKYGDIRKAIEEMDEDKLRNILYSFLRSASAILSIMAEQVNLSNKDDLDKYVDYVRKNLLIISFSTHSTKDMSKFSSMLSNFFTEIDDDNDEKKDEHLLYIVGFPILNQMGFISKSRHEKLTGDGKE ; soluble on expression in E. coli observed: not soluble
